tested-target: Bcl-2-like protein 10 (Homo sapiens)
assay: TR3 peptide-Bcl-B binding displacers, biochemical primary FP assay, phenotype converters (AID 1240);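 also: 0% = Bcl-B with tracer peptide and DMSO and 100% = tracer peptide lacking Bcl-B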
experimental-parameters: GST-Bcl-B / FITC-TR3 peptide fluorescence polarization; stronger effect = higher value; compound at 3.75 mg/L
About 800 (1.6%) of roughly 50,000 compounds showed an effect of 50% or more. The entries come from a sample that favours strong results as a whole.

{"compound-structure-string": "Cc1cccc(N2C(=O)S/C(=C\\c3ccccc3)C2=O)c1", "tested-target": "Bcl-2-like protein 10 (Homo sapiens)", "displacement": "12.3%"}
{"compound-structure-string": "CC(C)c1ccc(N2C(=O)NC(=O)/C(=C/c3ccccc3O)C2=O)cc1", "tested-target": "Bcl-2-like protein 10 (Homo sapiens)", "displacement": "0.6%"}
{"compound-structure-string": "COc1ccccc1OCCn1cc(C=C2C(=O)N(C)C(=O)N(C)C2=O)c2ccccc21", "tested-target": "Bcl-2-like protein 10 (Homo sapiens)", "displacement": "3.5%"}
{"compound-structure-string": "COc1ccc(/C=C2\\SC(=NCc3ccccc3)N(Cc3ccccc3)C2=O)cc1C(=O)O", "tested-target": "Bcl-2-like protein 10 (Homo sapiens)", "displacement": "78%"}
{"compound-structure-string": "O=C(ON=C1c2ccccc2-c2ccccc21)c1ccc(Cl)cc1Cl", "tested-target": "Bcl-2-like protein 10 (Homo sapiens)", "displacement": "13.1%"}
{"compound-structure-string": "Cn1cc(C=C2C(=O)NC(=S)NC2=O)c2ccccc21", "tested-target": "Bcl-2-like protein 10 (Homo sapiens)", "displacement": "8.8%"}
{"compound-structure-string": "COc1cc(OC)c(NC(=O)c2ccccc2C)cc1Cl", "tested-target": "Bcl-2-like protein 10 (Homo sapiens)", "displacement": "-12%"}
{"compound-structure-string": "COc1ccc(-c2nc(NC(=O)c3ccccc3F)sc2-c2ccc([N+](=O)[O-])cc2)cc1", "tested-target": "Bcl-2-like protein 10 (Homo sapiens)", "displacement": "13.6%"}
{"compound-structure-string": "O=C(c1ccc(N2CCN(C(=O)c3ccc(F)cc3)CC2)cc1)c1cccc(F)c1", "tested-target": "Bcl-2-like protein 10 (Homo sapiens)", "displacement": "-6.4%"}
{"compound-structure-string": "COc1ccccc1OCCn1cc(/C=C2/C(=O)NC(=O)N(c3ccccc3)C2=O)c2ccccc21", "tested-target": "Bcl-2-like protein 10 (Homo sapiens)", "displacement": "1.6%"}
{"compound-structure-string": "O=c1[nH]c(=S)[nH]c(O)c1C=Nc1cc(Cl)ccc1O", "tested-target": "Bcl-2-like protein 10 (Homo sapiens)", "displacement": "3.2%"}
{"compound-structure-string": "Cc1cccc(N2C(=O)/C(=C/c3ccc(N(C)C)cc3)SC2=S)c1", "tested-target": "Bcl-2-like protein 10 (Homo sapiens)", "displacement": "-5.4%"}
{"compound-structure-string": "O=C1NC(=O)N(c2ccc(Cl)cc2)C(=O)/C1=C/c1ccsc1", "tested-target": "Bcl-2-like protein 10 (Homo sapiens)", "displacement": "-24.1%"}
{"compound-structure-string": "C=CCNC(=O)CN(c1ccc(OC)cc1OC)S(=O)(=O)c1ccc(C)cc1", "tested-target": "Bcl-2-like protein 10 (Homo sapiens)", "displacement": "8.5%"}
{"compound-structure-string": "CC(C)c1ccc(N2C(=O)NC(=O)/C(=C/c3cn(C)c4ccccc34)C2=O)cc1", "tested-target": "Bcl-2-like protein 10 (Homo sapiens)", "displacement": "145%"}
